Exercise: for every item that follows, state its recorded protein stability index.
B1: HDAC6 (parent)
chain: QYMNEGELRVLADTYDSVYLHPNS

# Variants of: B1
# assay-procedure: protein stability index of a GFP-peptide fusion (GPS, HEK-293T) (PSI 1-6); higher = more stable;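 further: lentivirally expressed fusions sorted by FACS into six bins by GFP to DsRed ratio, PSI derived from sequencing read proportions per bin multiplied by bin number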
# measurement-conditions: c terminus: a fixed tail appended
Give bare numbers.

Illustrative cases are given below, each with its answer.
In [3]: df
Out[3]:
   variant_key  recorded_value
0          Y2A            1.43
1         D13E             1.6
2         Y15W            2.25
3         H21Y            2.18
4         V10P            3.53
5          R9F            3.31

For each of the variants below, state protein stability index.
1. R9S
2. S24V
3. S24Y
4. Y15G
5. Y2H
6. Y15H
7. P22R

[2.05, 1.74, 1.41, 2.6, 2.13, 3.13, 1.96]
